Target: human 4-1BB on CHO-K1 cells (human, UniProt Q07011 24-255)
Sequence (Q07011 24-255): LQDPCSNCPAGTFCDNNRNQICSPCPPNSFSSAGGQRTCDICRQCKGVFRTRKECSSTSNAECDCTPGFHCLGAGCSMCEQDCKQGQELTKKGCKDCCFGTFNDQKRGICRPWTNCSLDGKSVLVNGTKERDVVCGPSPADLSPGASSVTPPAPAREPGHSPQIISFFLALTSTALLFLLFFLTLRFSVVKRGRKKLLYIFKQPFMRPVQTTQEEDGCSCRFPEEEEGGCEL
Test: FACS; FIG. 11L
REPORTED PROPERTY: EC50 (nM)

// known answers, use as guide
BINDER	UNIT STRING	EC50
PR007297 (antibody, V domains shown) VH: EVQLVESGGGLVKPGGSLRLSCAASGFTFSDYYMSWIRQAPGKGLEWVSYISRSGSTIYYADSVKGRFTISRDNAKNSLYLQMNSLRAEDTAVYYCARVRPGGSGNYWDWFDPWGQGTLVTVSS	nM	11.7
Urelumab (antibody, V domains shown) VH: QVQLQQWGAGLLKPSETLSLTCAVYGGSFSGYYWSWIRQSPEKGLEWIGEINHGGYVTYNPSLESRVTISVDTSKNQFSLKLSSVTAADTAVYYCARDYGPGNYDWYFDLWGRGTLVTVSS VL: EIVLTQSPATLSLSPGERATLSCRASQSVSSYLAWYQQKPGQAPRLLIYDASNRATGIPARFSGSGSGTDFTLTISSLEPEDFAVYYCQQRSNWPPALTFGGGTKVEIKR	nM	0.565

1: PR007296 (antibody, V domains shown) VH: EVQLVESGGGLVKPGGSLRLSCVASGFTFSDYYMSWFRQAPGKGLEWVSYISGSGTTIDYADSVKGRFTISRDNAKNSLYLQMNSLRAEDTAVYYCAREREAVAGTLDFDNWGQGTPVTVSS
2: PR007295 (antibody, V domains shown) VH: EVQLVESGGGLVKPGGSLRLSCAASGFTFSDYYMSWIRQAPGKGLEWVSYISNNGSTIYYADSVKGRFTISRDNAKNSLYLQMNSLRAEDTAVYYCARVRPGGSGNYWDWFDPWGQGTMVTVSS
Q) Smaller EC50 value, 1 vs 2 ? Identify your pick by its label.
A) 1
